All values here come from PubChem BioAssay AID1240.

system_tested: Bcl-2-like protein 10 (Homo sapiens)
assay_procedure: TR3 peptide-Bcl-B binding displacers, biochemical primary FP assay, phenotype converters (AID 1240);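 also: 0% = Bcl-B with tracer peptide and DMSO and 100% = tracer peptide lacking Bcl-B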
protocol_conditions: GST-Bcl-B / FITC-TR3 peptide fluorescence polarization; stronger effect = higher value; compound at 3.75 mg/L
In all, about 50,000 compounds went through this assay and about 800 (1.6%) showed an effect of 50% or more. The entries come from a sample that favours strong results as a whole.
property_name: displacement (%)
# value in %; strip the unit string

The cases that follow already have their displacement on record.
{"columns": ["compound", "output_unit", "displacement"],
 "data": [
  ["COc1ccc(OC)c(CN2CCN(S(C)(=O)=O)CC2)c1", "%", -14],
  ["Nc1ccc2nc(SCC(=O)Nc3cccc(C(F)(F)F)c3)sc2c1", "%", -3.3]
]}

Which displacement is reported with Bcl-2-like protein 10 (Homo sapiens) for this entry: CC1CCN(C(=O)CN(c2cccc([N+](=O)[O-])c2)S(=O)(=O)c2ccccc2)CC1 ? 3.3

Which displacement is reported with Bcl-2-like protein 10 (Homo sapiens) for this entry: O=C1C2CCCCC2C(=O)N1CC(=O)N1c2ccccc2Sc2ccc(C(F)(F)F)cc21 (stereo not given) ? -14.3

Which displacement is reported with Bcl-2-like protein 10 (Homo sapiens) for this entry: CCc1ccccc1NC(=O)c1c(NC(=O)c2ccccc2)sc2c1CCC2 ? -15.6

Which displacement is reported with Bcl-2-like protein 10 (Homo sapiens) for this entry: COc1cccc(/C=N/NC(=O)c2cccc(N3CCCC3=O)c2)c1 ? -3.5

Which displacement is reported with Bcl-2-like protein 10 (Homo sapiens) for this entry: O=C(CSc1nnnn1-c1ccccc1)Nc1ccccc1[N+](=O)[O-] ? 1.7

Which displacement is reported with Bcl-2-like protein 10 (Homo sapiens) for this entry: COc1ccc(CCNC(=O)/C=C\c2ccccc2)cc1OC ? 6.7

Which displacement is reported with Bcl-2-like protein 10 (Homo sapiens) for this entry: O=C(Nc1ccc(-c2nnc(-c3ccccc3)o2)cc1)c1cccs1 ? 15.3

Which displacement is reported with Bcl-2-like protein 10 (Homo sapiens) for this entry: O=C1C(=Cc2ccccc2)C(=O)c2ccccc21 ? 17.6

Which displacement is reported with Bcl-2-like protein 10 (Homo sapiens) for this entry: COc1ccc(-c2ccc(/C=C3/C(=O)NC(=O)N(c4ccccc4)C3=O)o2)c([N+](=O)[O-])c1 ? 78.3

Which displacement is reported with Bcl-2-like protein 10 (Homo sapiens) for this entry: O=c1c2ccccc2nc(/C=C/c2c[nH]c3ccccc23)n1-c1ccc([N+](=O)[O-])cc1 ? -62.9

Which displacement is reported with Bcl-2-like protein 10 (Homo sapiens) for this entry: CCCCOc1ccc(NC(=O)CSc2nnc(N)s2)cc1 ? -16.9

Which displacement is reported with Bcl-2-like protein 10 (Homo sapiens) for this entry: CCNC(=O)/C=C/c1cn(-c2ccccc2)nc1-c1ccccc1 ? 9.4

Which displacement is reported with Bcl-2-like protein 10 (Homo sapiens) for this entry: O=C1CC(c2ccccc2)CC2=C1C(c1ccc(F)cc1)Nc1ccccc1N2 (stereo not given) ? 2.3

Which displacement is reported with Bcl-2-like protein 10 (Homo sapiens) for this entry: CC(C)(C)c1cc(C2=C(Cl)C(=O)c3ccccc3C2=O)cc(C(C)(C)C)c1O ? 6.9

Which displacement is reported with Bcl-2-like protein 10 (Homo sapiens) for this entry: O=c1[nH]c(=O)n(-c2ccccc2Cl)c(O)c1C=NCCCn1ccnc1 ? 11.5

Which displacement is reported with Bcl-2-like protein 10 (Homo sapiens) for this entry: CCN(CC)CCC(=O)c1ccc2c(c1)OCO2 ? -5.3

Which displacement is reported with Bcl-2-like protein 10 (Homo sapiens) for this entry: O=C1NCC(c2ccccc2)C1C(=O)N/N=C\c1cc([N+](=O)[O-])cc(Br)c1O (stereo not given) ? 5.6

Which displacement is reported with Bcl-2-like protein 10 (Homo sapiens) for this entry: COc1ccc(NC(=O)c2c(NC(=O)c3ccccc3)sc3c2CCCC3)cc1 ? 5.7

Which displacement is reported with Bcl-2-like protein 10 (Homo sapiens) for this entry: CC(=O)Nc1cccc(NC(=O)c2cccc(I)c2)c1 ? -1.5

Which displacement is reported with Bcl-2-like protein 10 (Homo sapiens) for this entry: Cc1ccc(/C=C2\SC(N3CCC(C)CC3)=NC2=O)cc1 ? -15

Which displacement is reported with Bcl-2-like protein 10 (Homo sapiens) for this entry: O=C1C(=C/C=C/c2ccccc2)C(=O)c2ccccc21 ? 75

Which displacement is reported with Bcl-2-like protein 10 (Homo sapiens) for this entry: CCOC(=O)C(=CNCCC(=O)O)C(=O)OCC ? 14.6

Which displacement is reported with Bcl-2-like protein 10 (Homo sapiens) for this entry: O=C(Nc1ccccc1[N+](=O)[O-])c1ccccc1Cl ? 8.4

Which displacement is reported with Bcl-2-like protein 10 (Homo sapiens) for this entry: CC1=NN(c2ccc(S(N)(=O)=O)cc2)C(=O)/C1=C\c1ccc(-c2ccc(C)c(Cl)c2)o1 ? 4

Which displacement is reported with Bcl-2-like protein 10 (Homo sapiens) for this entry: COc1nccc(NCc2ccccc2)c1C#N ? -12.3
